Listing of entries alongside the reported inhibition.
Target: Fibroblast growth factor receptor 3 (Homo sapiens) (UniProt P22607);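 also: values reported are mean percent inhibition of FGFR3 activity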
Sequence (P22607 23-806 limits assumed): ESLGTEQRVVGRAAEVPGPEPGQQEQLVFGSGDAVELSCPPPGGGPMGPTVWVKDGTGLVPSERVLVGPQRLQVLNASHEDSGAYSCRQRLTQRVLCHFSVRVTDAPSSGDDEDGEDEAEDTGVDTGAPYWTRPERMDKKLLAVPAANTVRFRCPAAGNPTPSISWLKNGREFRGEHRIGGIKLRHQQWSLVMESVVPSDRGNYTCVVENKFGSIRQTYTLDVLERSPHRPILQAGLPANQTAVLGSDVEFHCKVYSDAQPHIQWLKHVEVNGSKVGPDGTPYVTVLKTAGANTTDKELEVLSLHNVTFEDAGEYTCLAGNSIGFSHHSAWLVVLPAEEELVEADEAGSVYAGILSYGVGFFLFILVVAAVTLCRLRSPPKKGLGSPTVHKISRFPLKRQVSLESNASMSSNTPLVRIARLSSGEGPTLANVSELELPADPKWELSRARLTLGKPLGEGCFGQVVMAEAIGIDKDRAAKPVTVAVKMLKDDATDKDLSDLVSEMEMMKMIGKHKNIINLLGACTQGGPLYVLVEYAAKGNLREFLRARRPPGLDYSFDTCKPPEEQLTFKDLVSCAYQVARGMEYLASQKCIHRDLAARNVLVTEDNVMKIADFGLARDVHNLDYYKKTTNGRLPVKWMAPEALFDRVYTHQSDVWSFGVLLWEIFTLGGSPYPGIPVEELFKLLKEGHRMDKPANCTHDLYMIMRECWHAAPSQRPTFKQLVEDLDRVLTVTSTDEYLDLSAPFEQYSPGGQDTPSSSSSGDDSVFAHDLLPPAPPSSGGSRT
Conditions: at 1 µM
Write the value in % as a bare number.

compound=COc1ccc2ncn(-c3cc(O[C@H](C)c4ccccc4C(F)(F)F)c(C(N)=O)s3)c2c1 assay_system="Fibroblast growth factor receptor 3 (Homo sapiens) (UniProt P22607)" value_observed=3.58
compound=NS(=O)(=O)c1cccc(N/C=C2\C(=O)Nc3ccccc32)c1 assay_system="Fibroblast growth factor receptor 3 (Homo sapiens) (UniProt P22607)" value_observed=21
compound=O=C(Nc1n[nH]c2nnc(-c3cccnc3)cc12)C1CC1 assay_system="Fibroblast growth factor receptor 3 (Homo sapiens) (UniProt P22607)" value_observed=1.8
compound="CC1=C(C(=O)Nc2ccc3[nH]ncc3c2)C(c2ccc(F)cc2)N=C(c2ccc(C(F)(F)F)nc2)N1 (stereo not given)" assay_system="Fibroblast growth factor receptor 3 (Homo sapiens) (UniProt P22607)" value_observed=7.89
compound=Cc1c2ccc(N(C)c3ccnc(Nc4cccc(S(N)(=O)=O)c4)n3)cc2nn1C assay_system="Fibroblast growth factor receptor 3 (Homo sapiens) (UniProt P22607)" value_observed=70.1
compound=CN(c1ccc(NC(=O)NCCN2CCOCC2)cc1)c1ccnc(Nc2ccc(CS(C)(=O)=O)cc2)n1 assay_system="Fibroblast growth factor receptor 3 (Homo sapiens) (UniProt P22607)" value_observed=10.3
compound=COc1cc(Nc2ncc(-c3ccccc3)o2)cc(OC)c1 assay_system="Fibroblast growth factor receptor 3 (Homo sapiens) (UniProt P22607)" value_observed=10.2
compound=Cc1ccc(-c2cc3c(NC(=O)C4CC4)ncnc3o2)cc1 assay_system="Fibroblast growth factor receptor 3 (Homo sapiens) (UniProt P22607)" value_observed=5.53
compound=CS(=O)(=O)CCNCc1ccc(-c2ccc3ncnc(Nc4ccc(OCc5ccccc5)cc4)c3c2)o1 assay_system="Fibroblast growth factor receptor 3 (Homo sapiens) (UniProt P22607)" value_observed=3.89

Task item: Bench note: what inhibition did O=C1Nc2ccccc2/C1=C1\CCc2cc(O)ccc21 show?
Reply: 30.9
